Organism: Cavia porcellus
Test: Selectivity ratio between CCK-B and CCK-A receptor
Parameters: reference not given here
The label is Y for Selectivity ratio below 30 and N for Selectivity ratio equal to or exceeding 30.

> print(dat)
                                   compound  category.label
1  CN1C(=O)C(NC(=O)NCc2cccc(C(C)(C)O)c2)N=C(c2ccccc2)c2ccccc21 (configuration not stated)               N

Consider the record given below.
Problem: Just wondering, is Selectivity ratio of CCN(CC)C(=O)C(C)N1C(=O)C(NC(=O)Nc2ccc(Cl)cc2)N=C(c2ccccc2)c2ccccc21 (racemic) below 30?
Solution: Y
